details: buffer; pH 7.4; 200.0 µM
value-type: solubility kinetic (µg/mL)
Express it in µg/mL; write the number only.

INSERT INTO assay_data (compound, output_unit, assay_result) VALUES
  ('CSc1cccc(NC(=S)NC(=O)c2cccnc2)c1', 'µg/mL', 5.1);

Lab note: measured solubility kinetic of `Cc1ccc(OCC(=O)NCCNC(=O)c2cnccn2)cc1` was 40.9

For reference, reported solubility kinetic for `CC(C)CN1C(=O)c2ccc(NC(=O)C3CC3)cc2C1=O` stands at 0.5

solubility kinetic measured on `c1ccc(CCc2ccncc2)cc1` = 13

solubility kinetic in this record for `CCN1C(=O)c2ccc(C(=O)Nc3ccc4c(c3)OCO4)cc2C1=O` : 0.5
